# Tested on: human MPs
# experimentNotes: Radioligand binding of 125I-[…] to MPs
# statedConditions: excess / increasing concentrations of unlabelled competitor
quantityKind: Competition for binding of 125I-RIGRIVTAKY to MPs by unlabelled peptide/protein

# annotated cases, reported Competition for binding of 125I-RIGRIVTAKY to MPs by unlabelled peptide/protein shown
- substance: "RIGRIVT"
  systemTested: "human MPs"
  result: "blocked"
- substance: "CRAQTMANSGIK [peptide derived from the C-terminal portion of EMAP II, reference compound]"
  systemTested: "human MPs"
  result: "had no effect"
- substance: "RICRIVTAK"
  systemTested: "human MPs"
  result: "inhibition"
- substance: "ASRLDL"
  systemTested: "human MPs"
  result: "had no effect"
- substance: "ASRLDLRIGRIVTAKY [residues #6-20 from EMAP II, Cys to Arg substitution at position #15, and a C-terminal Tyr]"
  systemTested: "human MPs"
  result: "inhibition"
- substance: "RIGRAVT"
  systemTested: "human MPs"
  result: "had no effect"

Return value of Competition for binding of 125I-RIGRIVTAKY to MPs by unlabelled peptide/protein for input `ASRLDLRTGRIVT` , no commentary.
blocked

Source: patent US6734168B2
